Below, each entry is listed alongside its reported inhibition at 10 µM.
# System name: epidermal growth factor receptor-tyrosine kinase complex (Homo sapiens, UniProt P00533)
# Construct: The membrane preparation was employed in the following measurement without solubilization; endogenous in cells; host or cells: A-431 (ATCC CRL1555), membrane preparation, not solubilized
# Sequence (P00533 25-1210, one chain of several): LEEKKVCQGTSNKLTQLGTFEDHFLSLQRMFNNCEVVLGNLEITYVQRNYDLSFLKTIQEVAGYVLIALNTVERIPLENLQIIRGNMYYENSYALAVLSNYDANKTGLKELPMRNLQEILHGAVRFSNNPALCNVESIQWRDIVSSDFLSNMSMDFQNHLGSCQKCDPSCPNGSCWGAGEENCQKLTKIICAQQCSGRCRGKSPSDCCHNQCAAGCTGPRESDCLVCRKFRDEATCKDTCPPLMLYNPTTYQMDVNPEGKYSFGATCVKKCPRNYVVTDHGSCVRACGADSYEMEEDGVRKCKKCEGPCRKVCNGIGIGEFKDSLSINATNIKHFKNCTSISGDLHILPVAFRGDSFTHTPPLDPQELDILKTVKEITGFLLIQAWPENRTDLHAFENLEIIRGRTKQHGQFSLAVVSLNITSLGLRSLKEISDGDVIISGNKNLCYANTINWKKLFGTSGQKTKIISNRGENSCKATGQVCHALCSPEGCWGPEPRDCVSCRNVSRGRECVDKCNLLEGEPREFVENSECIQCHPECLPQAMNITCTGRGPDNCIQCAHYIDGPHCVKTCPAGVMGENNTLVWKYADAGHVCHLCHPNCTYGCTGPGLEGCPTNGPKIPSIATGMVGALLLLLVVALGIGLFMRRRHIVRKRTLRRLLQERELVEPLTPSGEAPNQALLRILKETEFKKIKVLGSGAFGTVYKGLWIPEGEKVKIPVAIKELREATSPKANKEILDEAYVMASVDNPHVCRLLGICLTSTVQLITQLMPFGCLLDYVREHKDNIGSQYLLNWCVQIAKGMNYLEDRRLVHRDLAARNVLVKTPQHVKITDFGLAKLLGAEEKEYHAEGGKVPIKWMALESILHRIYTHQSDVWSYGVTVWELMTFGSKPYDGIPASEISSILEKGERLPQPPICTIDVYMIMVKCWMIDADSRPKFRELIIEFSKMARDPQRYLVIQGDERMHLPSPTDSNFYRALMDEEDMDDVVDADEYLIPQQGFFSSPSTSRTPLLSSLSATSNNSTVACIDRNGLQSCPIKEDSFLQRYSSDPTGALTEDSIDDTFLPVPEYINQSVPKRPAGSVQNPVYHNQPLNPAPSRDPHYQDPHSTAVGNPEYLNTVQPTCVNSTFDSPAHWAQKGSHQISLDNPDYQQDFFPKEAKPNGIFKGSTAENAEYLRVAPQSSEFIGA
# Method: Tyrosine kinase inhibiting activity (A-431 membrane preparation, EGF-stimulated)
# Assay type: biochemical
# Test settings: 10 μM in the reaction mixture; read-out: Tyrosine kinase inhibition rate
# Method: Tyrosine kinase inhibiting activity of the compound of the present invention was measured referring to a method for measuring tyrosine kinase activity by G. Carpenter or by S. Cohen et al. [J. Biol. Chem., 254, 4884(1979); J. Biol. Chem., 257, 1528(1982)]. […] Tyrosine kinase inhibition rate (%) was calculated by the following equation. […]
Observed property: inhibition at 10 µM (%)

> print(dat)
                                   compound  recorded.number
1  CCCCOc1cc(C=C2SC(=S)NC2=O)cc(CSc2ccccc2)c1O [Compound 9]               50
2  O=C1Nc2ccccc2C1=Cc1cc(O)c(O)c(CSc2ccccc2)c1 [Compound 11]               52
3  O=C1NC(=S)SC1=Cc1cc(CSc2ccccc2)c(O)c(OCc2ccccc2)c1 [Compound 8]               69
4  O=C1N=C(NCc2ccccc2)SC1=Cc1cc(Cc2ccccc2)c(O)c(Cc2ccccc2)c1 [Compound 26]               62
5  CC(C)c1cc(C=C2SC(NCc3ccc([N+](=O)[O-])cc3)=NC2=O)cc(C(C)C)c1O [Compound 40]               21
6  COc1ccc(CNC2=NC(=O)C(=Cc3cc(C(C)C)c(O)c(C(C)C)c3)S2)cc1 [Compound 38]               85
7  O=C1N=C(NCc2cccs2)SC1=Cc1cc(CSc2ccccc2)c(O)c(OCc2ccccc2)c1 [Compound 31]               41
8  N#CC(=Cc1cc(O)c(O)c(Cc2ccccc2)c1)C(N)=O [Compound 23]               60

====

Below, each entry is listed alongside its reported inhibition at 10 µM.
# System name: 5-lipoxygenase (Cavia porcellus, UniProt A0A286X958)
# Construct: The cytosol fraction was used as an enzyme solution; from tissue; host or cells: peritoneal exudate cells of casein-injected Hartley guinea pigs, 105,000×g cytosol
# Sequence (A0A286X958 1-674): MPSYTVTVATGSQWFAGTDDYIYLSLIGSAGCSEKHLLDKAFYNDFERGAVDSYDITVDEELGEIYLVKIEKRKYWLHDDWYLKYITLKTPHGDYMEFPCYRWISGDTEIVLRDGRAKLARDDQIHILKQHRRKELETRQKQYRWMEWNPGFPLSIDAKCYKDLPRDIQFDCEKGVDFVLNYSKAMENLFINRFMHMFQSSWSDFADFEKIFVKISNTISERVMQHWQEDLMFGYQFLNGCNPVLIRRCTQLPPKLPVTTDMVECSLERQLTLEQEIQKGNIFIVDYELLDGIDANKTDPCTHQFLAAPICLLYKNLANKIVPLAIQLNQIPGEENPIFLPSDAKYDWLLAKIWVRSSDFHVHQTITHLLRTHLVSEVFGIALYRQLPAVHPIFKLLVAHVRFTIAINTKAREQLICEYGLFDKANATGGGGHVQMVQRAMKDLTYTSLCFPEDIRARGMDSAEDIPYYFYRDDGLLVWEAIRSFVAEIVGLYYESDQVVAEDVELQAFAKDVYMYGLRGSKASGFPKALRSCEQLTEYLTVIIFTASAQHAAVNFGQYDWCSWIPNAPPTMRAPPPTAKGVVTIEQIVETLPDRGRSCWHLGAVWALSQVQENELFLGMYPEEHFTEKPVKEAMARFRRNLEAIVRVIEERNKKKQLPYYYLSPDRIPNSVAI
# Method: 5-Lipoxygenase inhibiting activity (5-HETE formation, cytosol of peritoneal exudate cells)
# Type: biochemical, Hartley guinea pigs
# Test settings: 10 μM in the reaction mixture; read-out: Inhibition rate (5-lipoxygenase)
Observed property: inhibition at 10 µM (%)

> print(dat)
                                smiles.text    observed.property  recorded.number
1  N#CC(=Cc1cc(Cc2ccccc2)c(O)c(Cc2ccccc2)c1)C(N)=O  inhibition at 10 µM               28
2   N#CC(=Cc1cc(O)c(O)c(Cc2ccccc2)c1)C(N)=O  inhibition at 10 µM               85
3  Cc1ccc(CNC2=NC(=O)C(=Cc3cc(C(C)C)c(O)c(C(C)C)c3)S2)cc1  inhibition at 10 µM               87
4  CC(C)c1cc(C=C2SC(NCc3ccccc3)=NC2=O)cc(C(C)C)c1O  inhibition at 10 µM               82
5  CC(C)c1cc(C=C2SC(NCc3ccc(S(N)(=O)=O)cc3)=NC2=O)cc(C(C)C)c1O  inhibition at 10 µM               89
6  CC(C)c1cc(C=C2SC(NCc3ccc(N)cc3)=NC2=O)cc(C(C)C)c1O  inhibition at 10 µM               88
7  CC(C)c1cc(C=C2SC(NCc3ccc(Cl)c(Cl)c3)=NC2=O)cc(C(C)C)c1O  inhibition at 10 µM               89
8  O=C1NC(=S)SC1=Cc1cc(Cc2ccccc2)c(O)c(Cc2ccccc2)c1  inhibition at 10 µM               78
9    COc1cc(C=C(C#N)C(N)=O)cc(Cc2ccccc2)c1O  inhibition at 10 µM               63

====

# System name: epidermal growth factor receptor-tyrosine kinase complex (Homo sapiens)
# Construct: The membrane preparation was employed in the following measurement without solubilization; endogenous in cells; host or cells: A-431 (ATCC CRL1555), membrane preparation, not solubilized
# Method: Tyrosine kinase inhibiting activity (A-431 membrane preparation, EGF-stimulated)
# Assay type: biochemical
# Test settings: 1 μM in the reaction mixture; read-out: Tyrosine kinase inhibition rate
Below, each entry is listed alongside its reported inhibition at 1 µM.
Observed property: inhibition at 1 µM (%)

> print(dat)
                                   compound   observed.property  reading.unit  recorded.number
1  CCCCOc1cc(C=C2SC(NCc3ccccc3)=NC2=O)cc(Cc2ccccc2)c1O [Compound 30]  inhibition at 1 µM             %               70
2  O=C1Nc2ccccc2S(=O)(=O)C1=Cc1cc(Cc2ccccc2)c(O)c(Cc2ccccc2)c1 [Compound 5]  inhibition at 1 µM             %               42
3  O=C1OCCC1=Cc1cc(Cc2ccccc2)c(O)c(Cc2ccccc2)c1 [Compound 17]  inhibition at 1 µM             %               25
4  O=C1NCCC1=Cc1cc(Cc2ccccc2)c(O)c(Cc2ccccc2)c1 [Compound 18]  inhibition at 1 µM             %               87
5  O=C1NN(c2ccccc2)C(=O)C1=Cc1cc(O)c(O)c(Cc2ccccc2)c1 [Compound 24]  inhibition at 1 µM             %               37
6  O=C1Nc2ccccc2C1=Cc1cc(Cc2ccccc2)c(O)c(Cc2ccccc2)c1 [Compound 4]  inhibition at 1 µM             %               74
7  O=C1Nc2ccccc2C1=Cc1cc(-c2ccccc2)c(O)c(-c2ccccc2)c1 [Compound 3]  inhibition at 1 µM             %               45

====

Micrococcus luteus IFO 13867: recorded MIC for assorted compounds
Observed property: MIC

> print(dat)
                                smiles.text  observed.property      result
1  O=C1NN(c2ccccc2)C(=O)C1=Cc1cc(-c2ccccc2)c(O)c(-c2ccccc2)c1                MIC    50 µg/mL
2  N#CC(=Cc1cc(-c2ccccc2)c(O)c(-c2ccccc2)c1)C(N)=O                MIC    60 µg/mL
3  O=C1Nc2ccccc2C1=Cc1cc(Cc2ccccc2)c(O)c(Cc2ccccc2)c1                MIC   ≤ 6 µg/mL
4  O=C1NC(=S)SC1=Cc1cc(-c2ccccc2)c(O)c(-c2ccccc2)c1                MIC   ≤ 6 µg/mL
5  O=C1NN(c2ccccc2)C(=O)C1=Cc1cc(Cc2ccccc2)c(O)c(Cc2ccccc2)c1                MIC  ≤ 50 µg/mL
6  O=C1NC(=S)SC1=Cc1cc(Cc2ccccc2)c(O)c(Cc2ccccc2)c1                MIC   ≤ 6 µg/mL
7  N#CC(=Cc1cc(Cc2ccccc2)c(O)c(Cc2ccccc2)c1)C(N)=O                MIC  ≤ 15 µg/mL
8  O=C1Nc2ccccc2C1=Cc1cc(O)c(O)c(CSc2ccccc2)c1                MIC    12 µg/mL
